- TARGET_OF_ASSAY: 14-3-3γ (Homo sapiens, UniProt P61981)
- Construct: made in house; host or cells: E. coli NiCo21 (DE3)
- Sequence (P61981 whole entry): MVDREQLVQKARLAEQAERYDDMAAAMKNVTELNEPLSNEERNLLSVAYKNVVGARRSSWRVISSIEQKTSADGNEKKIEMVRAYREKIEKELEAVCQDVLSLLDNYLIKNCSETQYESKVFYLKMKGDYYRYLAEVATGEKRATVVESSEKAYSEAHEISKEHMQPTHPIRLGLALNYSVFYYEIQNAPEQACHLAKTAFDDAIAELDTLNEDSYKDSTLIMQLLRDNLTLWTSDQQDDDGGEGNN
- EXPERIMENT_SUMMARY: Fluorescence anisotropy (FA) binary binding study: 14-3-3 titrated to fluorescein-labelled peptide
- EXPERIMENTAL_CONTEXT: Table S2; FA KD of peptide divided by KD of previous (one amino acid longer) peptide; mean of n = 3
Where a SMILES comes first, the peptide text is derived from it. [ ]: non-standard residue; d: D form. The star is where a group is joined. ξ: configuration not given here. FITC = O=C1OC2(c3ccc(O)cc3Oc3cc(O)ccc32)c2ccc(NC(=S)*)cc21; Phe(4-NO2) = N[C@@H](Cc1ccc([N+](=O)[O-])cc1)C(=O)O; ξAla(4-thiazolyl) = NC(Cc1cscn1)C(=O)O; pS = N[C@@H](COP(=O)(O)O)C(=O)O; β3hS = N[C@@H](CO)CC(=O)O; Nva = CCC[C@H](N)C(=O)O; βAla = NCCC(=O)O
# key: entry, value: Fold change to previous

Answered examples (2):
INSERT INTO measurements (molecule, target_of_assay, observed_result) VALUES
  ('C[C@H](NC(=O)[C@H](CCCCN)NC(=O)[C@H](Cc1ccc([N+](=O)[O-])cc1)NC(=O)CCNC(=O)C[C@H](CO)NC(=O)[C@H](Cc1ccc([N+](=O)[O-])cc1)NC(=O)[C@@H](N)COP(=O)(O)O)C(=O)N[C@@H](CCCCNC(=S)Nc1ccc2c(c1)C(=O)OC21c2ccc(O)cc2Oc2cc(O)ccc21)C(N)=O [2d] (H-[pS][Phe(4-NO2)][β3hS][βAla][Phe(4-NO2)]KAK(FITC)-NH2)', '14-3-3γ (Homo sapiens, UniProt P61981)', '43,23'),
  ('C[C@H](NC(=O)[C@H](CCCCN)NC(=O)[C@H](Cc1ccc([N+](=O)[O-])cc1)NC(=O)CCNC(=O)C[C@H](CO)NC(=O)[C@H](Cc1ccc([N+](=O)[O-])cc1)NC(=O)[C@H](COP(=O)(O)O)NC(=O)C(Cc1cscn1)NC(=O)[C@@H](N)Cc1ccc([N+](=O)[O-])cc1)C(=O)N[C@@H](CCCCNC(=S)Nc1ccc2c(c1)C(=O)OC21c2ccc(O)cc2Oc2cc(O)ccc21)C(N)=O (stereo partly drawn) [2b] (H-[Phe(4-NO2)][ξAla(4-thiazolyl)][pS][Phe(4-NO2)][β3hS][βAla][Phe(4-NO2)]KAK(FITC)-NH2)', '14-3-3γ (Homo sapiens, UniProt P61981)', '2,86');

The recorded Fold change to previous with 14-3-3γ (Homo sapiens, UniProt P61981) for C[C@H](NC(=O)[C@H](CCCCN)NC(=O)[C@H](Cc1ccc([N+](=O)[O-])cc1)NC(=O)CCNC(=O)C[C@H](CO)NC(=O)[C@H](Cc1ccc([N+](=O)[O-])cc1)NC(=O)[C@H](COP(=O)(O)O)NC(=O)C(N)Cc1cscn1)C(=O)N[C@@H](CCCCNC(=S)Nc1ccc2c(c1)C(=O)OC21c2ccc(O)cc2Oc2cc(O)ccc21)C(N)=O (stereo partly drawn) [2c] (H-[ξAla(4-thiazolyl)][pS][Phe(4-NO2)][β3hS][βAla][Phe(4-NO2)]KAK(FITC)-NH2) was 0,53

GET /values?item= CCC[C@H](N)C(=O)N[C@@H](Cc1ccc([N+](=O)[O-])cc1)C(=O)NC(Cc1cscn1)C(=O)N[C@@H](COP(=O)(O)O)C(=O)N[C@@H](Cc1ccc([N+](=O)[O-])cc1)C(=O)N[C@@H](CO)CC(=O)NCCC(=O)N[C@@H](Cc1ccc([N+](=O)[O-])cc1)C(=O)N[C@@H](CCCCN)C(=O)N[C@@H](C)C(=O)N[C@@H](CCCCNC(=S)Nc1ccc2c(c1)C(=O)OC21c2ccc(O)cc2Oc2cc(O)ccc21)C(N)=O (stereo partly drawn) [2a] (H-[Nva][Phe(4-NO2)][ξAla(4-thiazolyl)][pS][Phe(4-NO2)][β3hS][βAla][Phe(4-NO2)]KAK(FITC)-NH2) &system= 14-3-3γ (Homo sapiens, UniProt P61981) returns Fold change to previous: 1,98
